target: Fibroblast growth factor receptor 3 (Homo sapiens); conditions: Compound concentration 20.0 uM, Protein concentration 2.0 uM, Result type QC Liability
Description: Thermal Shift Assay. Domain: start/stop: P449-E759
Lab note: anything with ΔTm at or over 0.5 °C counts as MET; the rest go in NOT MET.

The examples below pair each entry with its known result.
RECORD SMILES | TARGET SYSTEM | QUALITATIVE LABEL
CC(=O)O[C@H]1C(=O)[C@@]2(C)[C@H]([C@H](OC(=O)c3ccccc3)[C@]3(O)C[C@H](OC(=O)[C@H](O)[C@@H](NC(=O)c4ccccc4)c4ccccc4)C(C)=C1C3(C)C)[C@]1(OC(C)=O)CO[C@@H]1C[C@@H]2O | Fibroblast growth factor receptor 3 (Homo sapiens) | NOT MET
COc1ccc(-c2cc3c(C)nc(N)nc3n([C@H]3CC[C@H](OCCO)CC3)c2=O)cn1 | Fibroblast growth factor receptor 3 (Homo sapiens) | NOT MET
CC(C)c1cnn2c(NCc3ccccc3)cc(NCCCCCCN)nc12 | Fibroblast growth factor receptor 3 (Homo sapiens) | MET

Query: Decide: ΔTm of CCn1c(CNC(=O)c2ncc(C)nc2N)[n+](CC)c2ccc(C(=O)N(C)CCN(C)C)cc21 >= 0.5 °C?
Result: MET

Query: Decide: ΔTm of COC[C@@H](C)N[C@H]1CC[C@H](Nc2cc(-c3cccc(NCC4(C#N)CCOCC4)n3)c(Cl)cn2)CC1 >= 0.5 °C?
Result: NOT MET

Query: Decide: ΔTm of CC[C@@H](C(=O)OC)n1c(=O)c2ccccc2n(Cc2cn(C)c3cccc(C)c23)c1=O >= 0.5 °C?
Result: MET

Query: Decide: ΔTm of O=C(N[C@H]1CCC[C@H](CO)C1)C1CCN(c2nc3cc(Cl)c(-c4ccc(Cl)cc4)cc3o2)CC1 >= 0.5 °C?
Result: NOT MET
